Values were extracted from PubChem BioAssay AID2060495.

# Tested on: 521955-158-R2-J5-PDC complex spheroid viability
# EXPERIMENTAL DETAILS: Anticancer human tumor 521955-158-R2-J5-PDC patient-derived pancreatic carcinoma cell line growth inhibition [GQUAD]
# TEST PARAMETERS: second compound 3.16 µM; first compound 0.316 µM; active compounds read low
Consider the following molecules; for each one, report its viability, T/C.
Response body: numeric value in %, unit text excluded.

query: Param readout = viability, T/C; param system = 521955-158-R2-J5-PDC complex spheroid viability; param query = CC1COCCN1c1cc(-c2ccnn2C)c2ccnc(-c3ccn[nH]3)c2n1 (stereo not drawn) + Cc1cnc(CNC(=O)c2c(=O)c3ccc(N4CCCN(C)CC4)nc3n3c2sc2ccccc23)cn1 ; response: value
result: 11.1

query: Param readout = viability, T/C; param system = 521955-158-R2-J5-PDC complex spheroid viability; param query = Nc1ccn(C2OC(CO)C(O)C2(F)F)c(=O)n1 (stereo not drawn) + Cc1cnc(CNC(=O)c2c(=O)c3ccc(N4CCCN(C)CC4)nc3n3c2sc2ccccc23)cn1 ; response: value
result: 15.9

query: Param readout = viability, T/C; param system = 521955-158-R2-J5-PDC complex spheroid viability; param query = CCc1c2c(nc3ccc(O)cc13)-c1cc3c(c(=O)n1C2)COC(=O)[C@]3(O)CC + Cc1[nH]c2ccc(F)cc2c1-c1nc2c3cccnc3c3ncccc3c2[nH]1 ; response: value
result: 2.23

---

# System: 521955-158-R2-J5-PDC complex spheroid viability
# EXPERIMENTAL DETAILS: Anticancer human tumor 521955-158-R2-J5-PDC cell line growth inhibition [GQUAD];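 note: spheroids exposed to agents for one week before reading; 100% = DMSO vehicle control viability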
# TEST PARAMETERS: second compound 0.0316 µM; first compound 0.1 µM; active compounds read low
Consider the following compounds; for each one, report its viability, T/C.
Response body: numeric value in %, unit text excluded.

query: Recorded viability, T/C of CC(=O)O[C@H]1C(=O)[C@@]2(C)[C@H]([C@H](OC(=O)c3ccccc3)[C@]3(O)C[C@H](OC(=O)[C@H](O)[C@@H](NC(=O)c4ccccc4)c4ccccc4)C(C)=C1C3(C)C)[C@]1(OC(C)=O)CO[C@@H]1C[C@@H]2O + Cc1[nH]c2ccc(F)cc2c1-c1nc2c3cccnc3c3ncccc3c2[nH]1 , please.
result: 34.1

query: Recorded viability, T/C of C=CC(=O)N1CCN(c2nc(=O)n(-c3c(C)ccnc3C(C)C)c3nc(-c4c(O)cccc4F)c(F)cc23)C(C)C1 (stereo not given) + Cc1cnc(CNC(=O)c2c(=O)c3ccc(N4CCCN(C)CC4)nc3n3c2sc2ccccc23)cn1 , please.
result: 70.8

query: Recorded viability, T/C of CC1COCCN1c1cc(C2(O)CC3CCC(C2)O3)c2cnn(-c3ccn[nH]3)c2n1 (stereo not given) + Cc1[nH]c2ccc(F)cc2c1-c1nc2c3cccnc3c3ncccc3c2[nH]1 , please.
result: 10.8

query: Recorded viability, T/C of COc1cc(C2c3cc4c(cc3C(OC3OC5COC(C)OC5C(O)C3O)C3COC(=O)C23)OCO4)cc(OC)c1O (stereo not given) + Cc1[nH]c2ccc(F)cc2c1-c1nc2c3cccnc3c3ncccc3c2[nH]1 , please.
result: 72.6

query: Recorded viability, T/C of CC1COCCN1c1cc(C2(S(C)(=N)=O)CC2)nc(-c2ccnc3[nH]ccc23)n1 (stereo not given) + CN(C)c1ccc(Nc2c3ccc(NC(=O)CCN4CCCC4)cc3nc3cc(NC(=O)CCN4CCCC4)ccc23)cc1 , please.
result: 93.1

query: Recorded viability, T/C of C=CC(=O)N1CCN(c2nc(=O)n(-c3c(C)ccnc3C(C)C)c3nc(-c4c(O)cccc4F)c(F)cc23)C(C)C1 (stereo not given) + Cc1[nH]c2ccc(F)cc2c1-c1nc2c3cccnc3c3ncccc3c2[nH]1 , please.
result: 101

query: Recorded viability, T/C of CC1COCCN1c1cc(C2(O)CC3CCC(C2)O3)c2cnn(-c3ccn[nH]3)c2n1 (stereo not given) + CN(C)c1ccc(Nc2c3ccc(NC(=O)CCN4CCCC4)cc3nc3cc(NC(=O)CCN4CCCC4)ccc23)cc1 , please.
result: 20.8

query: Recorded viability, T/C of CCCS(=O)(=O)Nc1ccc(F)c(C(=O)c2c[nH]c3ncc(-c4ccc(Cl)cc4)cc23)c1F + Cc1[nH]c2ccc(F)cc2c1-c1nc2c3cccnc3c3ncccc3c2[nH]1 , please.
result: 95.9

query: Recorded viability, T/C of COc1ccc([C@@H](O)c2cc(-c3ncnc4cc(N5CCOCC5)ccc34)c(F)cc2Cl)nn1 + CN(C)c1ccc(Nc2c3ccc(NC(=O)CCN4CCCC4)cc3nc3cc(NC(=O)CCN4CCCC4)ccc23)cc1 , please.
result: 107

query: Recorded viability, T/C of CC(C)n1c(=O)n(C)c2cnc3cc(F)c(-c4ccc(OCCCN5CCCCC5)nc4)cc3c21 + Cc1cnc(CNC(=O)c2c(=O)c3ccc(N4CCCN(C)CC4)nc3n3c2sc2ccccc23)cn1 , please.
result: 53.2

query: Recorded viability, T/C of C#Cc1c(F)ccc2cc(O)cc(-c3ncc4c(N5CC6CCC(C5)N6)nc(OCC56CCCN5CC(F)C6)nc4c3F)c12 (stereo not given) + Cc1[nH]c2ccc(F)cc2c1-c1nc2c3cccnc3c3ncccc3c2[nH]1 , please.
result: 68.6

query: Recorded viability, T/C of COc1ncnc(C2CC2)c1-c1ncc2cnn(Cc3ccc(-c4nc(C(F)(F)F)cn4C(C)C)cc3)c2n1 + CN(C)c1ccc(Nc2c3ccc(NC(=O)CCN4CCCC4)cc3nc3cc(NC(=O)CCN4CCCC4)ccc23)cc1 , please.
result: 103

query: Recorded viability, T/C of CC(C)n1c(=O)n(C)c2cnc3cc(F)c(-c4ccc(OCCCN5CCCCC5)nc4)cc3c21 + CN(C)c1ccc(Nc2c3ccc(NC(=O)CCN4CCCC4)cc3nc3cc(NC(=O)CCN4CCCC4)ccc23)cc1 , please.
result: 108

query: Recorded viability, T/C of O=c1[nH]cc(F)c(=O)[nH]1 + Cc1cnc(CNC(=O)c2c(=O)c3ccc(N4CCCN(C)CC4)nc3n3c2sc2ccccc23)cn1 , please.
result: 70.5

query: Recorded viability, T/C of CC(C)(O)C1CCC(Nc2ccc3ncc(-c4cccc(C(F)(F)F)c4)n3n2)CC1 (stereo not given) + CN(C)c1ccc(Nc2c3ccc(NC(=O)CCN4CCCC4)cc3nc3cc(NC(=O)CCN4CCCC4)ccc23)cc1 , please.
result: 107

query: Recorded viability, T/C of Cc1cccc(N(C)C(=O)C2C(O)CCN2c2nc(C)cc(C(F)(F)F)c2C#N)c1 (stereo not given) + Cc1[nH]c2ccc(F)cc2c1-c1nc2c3cccnc3c3ncccc3c2[nH]1 , please.
result: 85.8

query: Recorded viability, T/C of O=C(NO)c1cnc(N2CCN(S(=O)(=O)c3ccc4ccccc4c3)CC2)nc1 + CN(C)c1ccc(Nc2c3ccc(NC(=O)CCN4CCCC4)cc3nc3cc(NC(=O)CCN4CCCC4)ccc23)cc1 , please.
result: 105

query: Recorded viability, T/C of O=C(NO)c1cnc(N2CCN(S(=O)(=O)c3ccc4ccccc4c3)CC2)nc1 + Cc1[nH]c2ccc(F)cc2c1-c1nc2c3cccnc3c3ncccc3c2[nH]1 , please.
result: 124

query: Recorded viability, T/C of COc1cccc2c1C(=O)c1c(O)c3c(c(O)c1C2=O)CC(O)(C(=O)CO)CC3OC1CC(N)C(O)C(C)O1 (stereo not given) + CN(C)c1ccc(Nc2c3ccc(NC(=O)CCN4CCCC4)cc3nc3cc(NC(=O)CCN4CCCC4)ccc23)cc1 , please.
result: 56.6

query: Recorded viability, T/C of Nc1ccn(C2OC(CO)C(O)C2(F)F)c(=O)n1 (stereo not given) + Cc1[nH]c2ccc(F)cc2c1-c1nc2c3cccnc3c3ncccc3c2[nH]1 , please.
result: 83.1

---

# System: 521955-158-R2-J5-PDC complex spheroid viability
# EXPERIMENTAL DETAILS: Anticancer human tumor 521955-158-R2-J5-PDC cell line growth inhibition [GQUAD];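 note: spheroids exposed to agents for one week before reading; 100% = DMSO vehicle control viability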
# TEST PARAMETERS: second compound 0.1 µM; first compound 1 µM; active compounds read low
OUTCOME MEASURE: viability, T/C

query: Recorded viability, T/C of Cc1cccc(N(C)C(=O)C2C(O)CCN2c2nc(C)cc(C(F)(F)F)c2C#N)c1 (stereo not given) + CN(C)c1ccc(Nc2c3ccc(NC(=O)CCN4CCCC4)cc3nc3cc(NC(=O)CCN4CCCC4)ccc23)cc1 , please.
result: 96.3%

query: Recorded viability, T/C of CC(C)n1c(=O)n(C)c2cnc3cc(F)c(-c4ccc(OCCCN5CCCCC5)nc4)cc3c21 + CN(C)c1ccc(Nc2c3ccc(NC(=O)CCN4CCCC4)cc3nc3cc(NC(=O)CCN4CCCC4)ccc23)cc1 , please.
result: 95.3%

query: Recorded viability, T/C of C=CCn1c(=O)c2cnc(Nc3ccc(N4CCN(C)CC4)cc3)nc2n1-c1cccc(C(C)(C)O)n1 + CN(C)c1ccc(Nc2c3ccc(NC(=O)CCN4CCCC4)cc3nc3cc(NC(=O)CCN4CCCC4)ccc23)cc1 , please.
result: 15.5%

query: Recorded viability, T/C of O=C(NO)c1cnc(N2CCN(S(=O)(=O)c3ccc4ccccc4c3)CC2)nc1 + Cc1cnc(CNC(=O)c2c(=O)c3ccc(N4CCCN(C)CC4)nc3n3c2sc2ccccc23)cn1 , please.
result: 6.79%

query: Recorded viability, T/C of COc1ccc([C@@H](O)c2cc(-c3ncnc4cc(N5CCOCC5)ccc34)c(F)cc2Cl)nn1 + Cc1cnc(CNC(=O)c2c(=O)c3ccc(N4CCCN(C)CC4)nc3n3c2sc2ccccc23)cn1 , please.
result: 31.7%

query: Recorded viability, T/C of CC1COCCN1c1cc(C2(S(C)(=N)=O)CC2)nc(-c2ccnc3[nH]ccc23)n1 (stereo not given) + Cc1cnc(CNC(=O)c2c(=O)c3ccc(N4CCCN(C)CC4)nc3n3c2sc2ccccc23)cn1 , please.
result: 32.7%

query: Recorded viability, T/C of C=CC(=O)N1CCN(c2nc(=O)n(-c3c(C)ccnc3C(C)C)c3nc(-c4c(O)cccc4F)c(F)cc23)C(C)C1 (stereo not given) + CN(C)c1ccc(Nc2c3ccc(NC(=O)CCN4CCCC4)cc3nc3cc(NC(=O)CCN4CCCC4)ccc23)cc1 , please.
result: 111%

query: Recorded viability, T/C of C#Cc1c(F)ccc2cc(O)cc(-c3ncc4c(N5CC6CCC(C5)N6)nc(OCC56CCCN5CC(F)C6)nc4c3F)c12 (stereo not given) + Cc1cnc(CNC(=O)c2c(=O)c3ccc(N4CCCN(C)CC4)nc3n3c2sc2ccccc23)cn1 , please.
result: 18.3%

query: Recorded viability, T/C of CC1COCCN1c1cc(C2(S(C)(=N)=O)CC2)nc(-c2ccnc3[nH]ccc23)n1 (stereo not given) + Cc1[nH]c2ccc(F)cc2c1-c1nc2c3cccnc3c3ncccc3c2[nH]1 , please.
result: 35.9%

query: Recorded viability, T/C of COc1cccc2c1C(=O)c1c(O)c3c(c(O)c1C2=O)CC(O)(C(=O)CO)CC3OC1CC(N)C(O)C(C)O1 (stereo not given) + Cc1[nH]c2ccc(F)cc2c1-c1nc2c3cccnc3c3ncccc3c2[nH]1 , please.
result: 11%
